Exercise: state measured Inhibition of binding (%) for each of the binders provided.
Target System: T1, human TSH receptor (full length), coated on tubes (human, UniProt P16473 22-764)
T1 construct: TSHR coated tubes as described in WO2004/050708A2; Exact preparation on the tubes is not detailed here; also called thyroid stimulating hormone receptor
Assay Info: competition with 125I-K1-18 IgG on TSHR coated tubes; 0.1 µg/mL, diluted in HBD serum pool
Answers are plain numbers, in %.

[[record]]
binder = "K1-70 Fab (Fab, V domains shown) VH: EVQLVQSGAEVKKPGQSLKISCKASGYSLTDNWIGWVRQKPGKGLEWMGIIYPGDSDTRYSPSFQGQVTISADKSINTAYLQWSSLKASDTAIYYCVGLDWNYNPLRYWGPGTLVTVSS VL: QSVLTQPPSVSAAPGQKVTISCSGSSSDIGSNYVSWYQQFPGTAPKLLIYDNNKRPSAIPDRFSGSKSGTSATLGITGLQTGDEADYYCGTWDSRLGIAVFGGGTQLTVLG"
parameter_measured = "Inhibition of binding (%)"
reading = 75.2

[[record]]
binder = "K1-70 IgG (antibody, V domains shown) VH: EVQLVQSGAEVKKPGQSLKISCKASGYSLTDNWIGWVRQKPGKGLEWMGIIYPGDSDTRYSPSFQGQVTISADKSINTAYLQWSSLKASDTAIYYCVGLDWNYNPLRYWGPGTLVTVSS VL: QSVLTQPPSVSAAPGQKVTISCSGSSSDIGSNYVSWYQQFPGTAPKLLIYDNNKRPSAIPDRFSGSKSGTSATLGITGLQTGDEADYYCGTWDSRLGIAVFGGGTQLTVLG"
parameter_measured = "Inhibition of binding (%)"
reading = 55.6

[[record]]
binder = "K1-18 IgG (antibody, V domains shown) VH: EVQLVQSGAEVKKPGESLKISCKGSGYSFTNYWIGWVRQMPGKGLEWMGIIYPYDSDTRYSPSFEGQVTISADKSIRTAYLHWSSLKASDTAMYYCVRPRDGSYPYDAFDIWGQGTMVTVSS VL: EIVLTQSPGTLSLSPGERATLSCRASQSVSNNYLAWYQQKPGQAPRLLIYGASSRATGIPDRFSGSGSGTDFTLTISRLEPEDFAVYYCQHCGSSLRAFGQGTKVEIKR"
parameter_measured = "Inhibition of binding (%)"
reading = 49.4


Data request, read-out Inhibition of binding (%), for K1-18 Fab (Fab, V domains shown) VH: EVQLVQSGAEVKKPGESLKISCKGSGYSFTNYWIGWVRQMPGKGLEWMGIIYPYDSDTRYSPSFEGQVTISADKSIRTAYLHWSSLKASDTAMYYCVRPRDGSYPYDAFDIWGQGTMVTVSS VL: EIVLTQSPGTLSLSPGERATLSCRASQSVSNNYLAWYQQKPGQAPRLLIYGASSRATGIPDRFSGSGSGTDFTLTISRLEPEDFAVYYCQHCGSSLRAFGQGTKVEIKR
39
